# protocol: Half-life of Compound 1
# measurementSetup: read-out: t½ (converted)
metricName: half-life (h)

> print(dat)
                                   compound  experimentalvalue
1  Cc1cc(C(=O)N(C)C)cc(NC(=O)[C@H]2CCC(=O)N2C2CCN(Cc3ccc(Cl)c(C)c3)CC2)n1 [Compound 1]                 18
